Value source: patent US20110076262A1

Reported Ka (fold slower), against chimeric 1A6 values for a set of binders
target.desc: T1, Human FGF19 (human, UniProt O95750 25-216)
T1 construct: Recombinant soluble protein; also called huFGF19; Fibroblast growth factor 19
experimental.details: SPR (BIAcore 2000), IgG on chip, soluble human FGF19
Give your result in fold as a bare value.

Example cases with answers are listed next.
[[record]]
binder = "hu1A6.Q90S (HVR-L3) (antibody, V domains shown) VH: EVQLVESGGGLVQPGGSLRLSCAASGFSLTTYGVHWVRQAPGKGLEWVGVIWPGGGTDYNAAFISRFTISRDNSKNTLYLQMNSLRAEDTAVYYCVRKEYANLYAMDYWGQGTLVTVSS VL: DIQMTQSPSSLSASVGDRVTITCKASQDINSFLSWYQQKPGKAPKLLIYRANRLVDGVPSRFSGSGSGTDFTLTISSLQPEDFATYYCLSYDEFPLTFGQGTKVEIKR"
units_symbol = "fold"
numeric_result = 10.4

[[record]]
binder = "1A6-graft (direct HVR-graft of 1A6), expressed as IgG (antibody, V domains shown, Tested as IgG produced in 293 cells; also called 1A6 grafted antibody; 1A6 HVR graft) VH: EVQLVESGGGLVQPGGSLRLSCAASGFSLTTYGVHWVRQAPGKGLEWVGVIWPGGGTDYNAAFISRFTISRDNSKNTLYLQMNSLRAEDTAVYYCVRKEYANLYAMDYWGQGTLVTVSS VL: DIQMTQSPSSLSASVGDRVTITCKASQDINSFLSWYQQKPGKAPKLLIYRANRLVDGVPSRFSGSGSGTDFTLTISSLQPEDFATYYCLQYDEFPLTFGQGTKVEIKR"
units_symbol = "fold"
numeric_result = 24.8


API: the following record is the query input.
What value of Ka (fold slower), against chimeric 1A6 has been recorded for this entry: hu1A6.V34A (HVR-H1) (antibody, name in Kabat numbering, V domains shown) VH: EVQLVESGGGLVQPGGSLRLSCAASGFSLTTYGAHWVRQAPGKGLEWVGVIWPGGGTDYNAAFISRFTISRDNSKNTLYLQMNSLRAEDTAVYYCVRKEYANLYAMDYWGQGTLVTVSS VL: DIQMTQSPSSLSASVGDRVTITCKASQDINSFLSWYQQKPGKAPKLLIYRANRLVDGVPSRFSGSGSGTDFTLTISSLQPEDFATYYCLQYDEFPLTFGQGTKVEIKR
12.5
